# experimental_setup: buffer; pH 7.4; 200.0 µM
property_label: solubility kinetic (mg/mL)
Report the value in mg/mL with no unit label.

Suppose we examine the compound "O=C(COC(=O)CC1CCCC1)Nc1ccccc1[N+](=O)[O-]" ; what solubility kinetic value has been reported?
0.0121

Please answer likewise for "C/C(=N/OC(=O)c1cccc(C(F)(F)F)c1)c1cnccn1"
0.0035

Next compound up: "COc1ccc(CCNC(=O)c2ccccc2SC)cc1"
0.0274

How about "COc1ccc(NC(=O)c2cc([N+](=O)[O-])ccc2N2CCCCC2)cc1OC" ?
0.014

Item: CC(C)CCc1noc(CN(CC2CCC2)CC2CCCO2)n1 (stereo unspecified)
0.0119

---

Hi there, I'd appreciate the recorded solubility kinetic for every entry that follows.
# experimental_setup: buffer; pH 7.4; 200.0 µM

What value of solubility kinetic has been reported for the following molecule? "O=Cc1c(NCc2cccc(F)c2)c2ccccc2[nH]c1=O"
19.8 µg/mL

Entry CCC(C(=O)Nc1ccc(Cl)cc1)N1CCCC1=O (stereo unspecified) please
41.3 µg/mL

"Cc1onc(-c2ccccc2)c1C(=O)N=C(N)c1ccc(C(F)(F)F)cc1" , same question.
< 0.3 µg/mL

Again, but for "Cn1cc(C(=O)NC2CC2)c2ccccc21"
31.9 µg/mL

Next entry: COc1ccc(CC(C)NCCC(c2ccccc2)c2ccccc2)cc1 (stereo unspecified)
47.1 µg/mL

What do we get for COc1ccc(N(CC2CO2)S(=O)(=O)c2ccc(C)cc2)cc1 (stereo unspecified) ?
49 µg/mL

---

Could you please report measured solubility kinetic for the items listed next?
# experimental_setup: buffer; pH 7.4; 200.0 µM

Quick one: solubility kinetic for "Cc1ccccc1OCCC(=O)OCC(=O)NC1CC1" ?
> 41.6 µg/mL

Queued: "O=S(=O)(c1ccccc1)N1CCc2ccccc21"
2 µg/mL

Field entry: "CCN(C(=O)CN1C(=O)CN(C)C1=O)c1cccc2ccccc12"
> 48.8 µg/mL

Proceed to "CCOC(=O)c1cc2c(=O)c3cc(C)ccc3oc2nc1C"
< 0.6 µg/mL

Here is the next molecule: "COc1ccccc1CNC(=O)c1cc(C(C)=O)c[nH]1"
25.1 µg/mL

Next molecule up: "Cn1c(CNc2ccc(F)cc2)nc2ccccc21"
> 38.3 µg/mL

Also "COc1ccc(C=O)cc1CSc1ncccc1C(=O)O" , if possible.
> 45.5 µg/mL

Cool, now "Cc1cccc2c(C(=O)O)c3cccc(C)c3nc12"
34 µg/mL

Next entry: "CCOC(=O)CN1C(=O)C(=O)N(Cc2ccccc2F)C1=O"
> 46.2 µg/mL

Repeat for the following molecule: CCC(C)c1ccc(NC(=O)c2ccco2)cc1 (stereo not given)
24.6 µg/mL

What about this molecule? "CCC(=O)N1CCc2cc(S(=O)(=O)Nc3ccccc3C)ccc21"
< 0.4 µg/mL

# repeat for "O=C(CCCO)NC1Cc2ccccc2C1"
31.7 µg/mL

Cool, now "COc1ccccc1CNCC(=O)Nc1cc(S(=O)(=O)N2CCCCC2)ccc1C.O=C(O)C(=O)O"
34.3 µg/mL

Field entry: "N#Cc1c(N)c(C(=O)c2ccccc2)n2ccccc12"
31.4 µg/mL

Now the molecule "Cc1cc(OCC(=O)Nc2ccncc2)cc(C)c1Cl"
2.9 µg/mL

# iterate: "CC1CCN(CCC(=O)Nc2ccccc2)CC1"
29.5 µg/mL

// same read-out, input: CC1CC(C)CN(C(=O)c2ccc3c(c2)OCCO3)C1 (stereo not given)
> 41.3 µg/mL

Here is the next molecule: "Cc1sc(NC(=S)NC(=O)c2ccco2)c(C#N)c1C"
1.1 µg/mL

# iterate: "N#CCN1C(=O)C(=O)N(Cc2cccc(Cl)c2)C1=O"
> 41.7 µg/mL

Follow-up item: "CCCCN(C(=O)CN(C)CC(=O)Nc1cccc(OC)c1)c1c(N)n(CCCC)c(=O)[nH]c1=O"
> 73.3 µg/mL

What do you have for "O=C(O)CNS(=O)(=O)c1cccc(Cl)c1" ?
> 37.5 µg/mL

Input "CSc1nc(N2CCN(C)CC2)c2c(c1C#N)CC(C)(C)OC2"
> 49.9 µg/mL

Repeat with "Cc1cc(NC(=O)CN2CCC(C)CC2)no1.O=C(O)C(=O)O"
> 49.1 µg/mL

Next: "COc1ccc(CCC(=O)Nc2nc(C)c(C(=O)N(C)C)s2)cc1"
41.3 µg/mL

Next record, please: "C/C=C(\C)C(=O)N1CCC(C(=O)c2ccccc2)CC1"
> 40.7 µg/mL
